- experimental_system: UniProt Q9NS86
- procedure_text: SPR (BIACORE S200) kinetic determination of LANCL2-small molecule interactions
- Format: binding
- experimental_setup: maximum binding force
measured_endpoint: Rmax (RU)
The reply should contain only the number, in RU.

These solved cases illustrate the format of a correct answer.
Given the compound O=C(NC1CCN(C(=O)c2ccnc(Nc3ccccc3)n2)CC1)c1cccc(Nc2ccccc2)n1 [Embodiment L-81] , what is its reported Rmax (RU)? 10.5

Given the compound NC(=O)c1sccc1NC(=O)c1ccc(C(=O)N2CCC3(CC2)CCN(C(=O)c2cccc(-c4cn5ccccc5n4)c2)CC3)cc1 [Embodiment L-96] , what is its reported Rmax (RU)? 2.3

Continuing:
Given the compound Cc1ccc(C(=O)N2CCC3(CCN(C(=O)c4cccc(-c5cn6ccccc6n5)c4)CC3)CC2)cc1NC1=CC(=O)c2ccccc2C1=O [Embodiment L-95] , what is its reported Rmax (RU)? 5.2

====

- experimental_system: LANCL2 (Homo sapiens (Human), UniProt Q9NS86)
- Sequence (Q9NS86 whole entry, species assumed): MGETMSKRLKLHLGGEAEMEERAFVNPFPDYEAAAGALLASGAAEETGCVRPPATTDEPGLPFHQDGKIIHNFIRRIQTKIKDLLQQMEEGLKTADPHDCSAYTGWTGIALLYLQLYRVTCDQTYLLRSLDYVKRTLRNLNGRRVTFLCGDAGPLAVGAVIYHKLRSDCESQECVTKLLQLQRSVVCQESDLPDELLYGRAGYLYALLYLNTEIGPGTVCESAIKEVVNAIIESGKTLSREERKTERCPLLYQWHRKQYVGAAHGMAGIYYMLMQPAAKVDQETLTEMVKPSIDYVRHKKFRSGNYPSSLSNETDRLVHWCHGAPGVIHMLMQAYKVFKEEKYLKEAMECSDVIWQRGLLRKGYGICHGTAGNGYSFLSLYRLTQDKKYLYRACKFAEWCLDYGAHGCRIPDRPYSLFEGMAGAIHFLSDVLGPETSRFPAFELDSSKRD
- procedure_text: SPR (BIACORE S200) kinetic determination of LANCL2-small molecule interactions
- Type: binding
- experimental_setup: maximum binding force
This listing pairs compounds with measured Rmax (RU).
The reply should contain only the number, in RU.

These solved cases illustrate the format of a correct answer.
Given the compound `O=C(c1cnc2ccccc2c1)N1CCN(C(=O)c2cccc(-c3nc4ccccc4[nH]3)n2)CC1` , what is its reported Rmax (RU)? 13.7

Given the compound `O=C(c1cccc(-c2nc3ccccc3[nH]2)n1)N1CCC2(CC1)CCN(C(=O)c1cccc(-c3nc4ccccc4[nH]3)n1)CC2` , what is its reported Rmax (RU)? 3.9

Given the compound O=C(c1ccc(F)c(Cl)c1)N1CC2CN(C(=O)c3cccc(-c4nc5ccccc5[nH]4)n3)CC2C1 (stereo not shown) , what is its reported Rmax (RU)? 4.8

Given the compound Cc1ccc2cc(C(=O)N3CC4CN(C(=O)c5cccc(-c6nc7ccccc7[nH]6)n5)CC4C3)ccc2n1 (stereo not shown) , what is its reported Rmax (RU)? 5.2

Given the compound O=C(NC1C2CN(C(=O)c3cccc(-c4nc5ccccc5[nH]4)n3)CC21)c1cccc(Nc2ccccn2)n1 (stereo not shown) , what is its reported Rmax (RU)? 3.9

Given the compound CN1CCC2(CC1)CCN(c1ccc(NC(=O)C3CCN(C(=O)c4cccc(-c5nc6ccccc6[nH]5)n4)C3)cc1)CC2 (stereo not shown) , what is its reported Rmax (RU)? 14.4

Continuing:
Given the compound Cc1ccncc1C(=O)N1CC2CN(C(=O)c3cccc(-c4nc5ccccc5[nH]4)n3)CC2C1 (stereo not shown) , what is its reported Rmax (RU)? 3.9

====

- experimental_system: UniProt Q9NS86
- procedure_text: SPR (BIACORE S200) kinetic determination of LANCL2-small molecule interactions
- Assay type: binding
- experimental_setup: maximum binding force
Class key for Rmax (RU) values: label 0 (below 6 RU), label 1 (6 RU to below 10 RU), label 2 (10 RU or more)

Category of O=C(c1ccnc(Nc2ccccc2)n1)N1CC2CN(C(=O)c3ccnc(Nc4ccccc4)n3)CC2C1 (centres unmarked) , please. label 1

Category of `O=C(NC1CCN(C(=O)c2ccnc(Nc3ccccc3)n2)CC1)c1ccnc(Nc2ccccc2)n1` , please. label 2

Category of `O=C(c1ccnc(Nc2ccccc2)n1)N1CCC2(CC1)CCN(C(=O)c1ccnc(Nc3ccccc3)n1)CC2` , please. label 2

Category of `O=C(c1cccc(-c2nc3ccccc3[nH]2)n1)N1CCC2(CC1)CCN(C(=O)c1cccc(-c3nc4ccccc4[nH]3)n1)C2` , please. label 0

Category of Cc1ccc(C(=O)N2CC3C(C2)C3NC(=O)c2cccc(-c3nc4ccccc4[nH]3)n2)cc1NC1=CC(=O)c2ccccc2C1=O (centres unmarked) , please. label 0

Continuing:
Category of `O=C(c1cccc(-c2nc3ccccc3[nH]2)n1)N1CCN(C(=O)c2n[nH]c3ccccc23)CC1` , please. label 2

Category of `O=C(c1cccc(-c2nc3ccccc3[nH]2)n1)N1CCC2(CCCN(C(=O)c3cccc(-c4nc5ccccc5[nH]4)n3)C2)CC1` , please. label 0

Category of `O=C(c1cccc(Nc2ccccc2)n1)N1CCCC2(CCN(C(=O)c3cccc(-c4nc5ccccc5[nH]4)n3)CC2)C1` , please. label 1

====

This listing pairs molecules with measured Rmax (RU).
- experimental_system: LANCL2 (Homo sapiens (Human))
- procedure_text: SPR (BIACORE S200) kinetic determination of LANCL2-small molecule interactions
- Assay type: binding
- experimental_setup: maximum binding force
The reply should contain only the number, in RU.

Given the molecule O=C(c1ccc(-c2nc3ccccc3[nH]2)nc1)N1CCC2(CCN(C(=O)c3cccc(-c4nc5ccccc5[nH]4)n3)C2)C1 (stereo not drawn) , what is its reported Rmax (RU)? 3.6

Given the molecule `O=C(c1cccc(-c2nc3ccccc3[nH]2)n1)N1CCC2(CCCN(C(=O)c3ccnc(Nc4ccccc4)n3)C2)CC1` , what is its reported Rmax (RU)? 6.1

Given the molecule O=C(c1cccc(-c2nc3ccccc3[nH]2)n1)N1CC2CN(C(=O)c3ccc4ccccc4n3)CC2C1 (stereo not drawn) , what is its reported Rmax (RU)? 6.1

Given the molecule O=C(c1cnc2ccccc2c1)N1CC2CN(C(=O)c3cccc(-c4nc5ccccc5[nH]4)n3)CC2C1 (stereo not drawn) , what is its reported Rmax (RU)? 7

Given the molecule O=C(c1cccc(-c2nc3ccccc3[nH]2)n1)N1CCN(C(=O)c2cccc(-c3nc4ccccc4[nH]3)n2)CC1 [BT-11, reference compound] , what is its reported Rmax (RU)? 3.6

Continuing:
Given the molecule `Cc1cn(-c2cccc(C(=O)N3CCN(C(=O)c4cccc(-c5nc6ccccc6[nH]5)n4)CC3)c2)cn1` , what is its reported Rmax (RU)? 3.2

Given the molecule `O=C(c1cccc(-c2nc3ccccc3[nH]2)n1)N1CCC(c2nc3ccccc3[nH]2)CC1` , what is its reported Rmax (RU)? 8

Given the molecule O=C(c1cccc(-c2nc3ccccc3[nH]2)n1)N1CC2CN(C(=O)C3CCC(c4ccc(Cl)cc4)CC3)CC2C1 (stereo not drawn) , what is its reported Rmax (RU)? 3.3

Given the molecule `O=C(c1cccc(-c2cn3ccccc3n2)c1)N1CCC2(CC1)CCN(C(=O)c1cccc(Nc3ccccc3)n1)CC2` , what is its reported Rmax (RU)? 5.3

====

This listing pairs compounds with measured pKd.
- experimental_system: LANCL2 (Homo sapiens (Human))
- procedure_text: SPR (BIACORE S200) kinetic determination of LANCL2-small molecule interactions
- experimental_setup: immobilized LANCL2, 1:1 binding model, pH 6.5, 25° C.
Schema: pKd number; meaning minus log10 of the concentration expressed in molar units.

Given the compound `O=C(N[C@H]1[C@@H]2CN(C(=O)c3sccc3-n3cccc3)C[C@@H]21)c1cccc(-c2cn3ccccc3n2)c1` , what is its reported pKd? 4.90

Continuing:
Given the compound `NC(=O)c1sccc1NC(=O)c1ccc(C(=O)N2CCN(C(=O)c3cccc(-c4nc5ccccc5[nH]4)n3)CC2)cc1` , what is its reported pKd? 4.75

Given the compound `O=C(c1ccnc(Nc2ccccc2)n1)N1CCC2(CC1)CCN(C(=O)c1ccnc(Nc3ccccc3)n1)CC2` , what is its reported pKd? 4.09

Given the compound `O=C(c1cccc(-c2nc3ccccc3[nH]2)n1)N1CCC2(CCCN(C(=O)c3cccc(-c4nc5ccccc5[nH]4)n3)C2)CC1` , what is its reported pKd? 4.67

Given the compound O=C(c1cnc2ccccc2c1)N1CC2CN(C(=O)c3cccc(-c4nc5ccccc5[nH]4)n3)CC2C1 (stereo not shown) , what is its reported pKd? 4.99

Given the compound Cc1ccncc1C(=O)N1CC2CN(C(=O)c3cccc(-c4nc5ccccc5[nH]4)n3)CC2C1 (stereo not shown) , what is its reported pKd? 4.74

Given the compound O=C(c1ccc(-c2nc3ccccc3[nH]2)nc1)N1CCC2(CCN(C(=O)c3cccc(-c4nc5ccccc5[nH]4)n3)C2)C1 (stereo not shown) , what is its reported pKd? 4.56

====

- experimental_system: LANCL2 (Homo sapiens (Human), UniProt Q9NS86)
- procedure_text: SPR (BIACORE S200) kinetic determination of LANCL2-small molecule interactions
- Assay type: binding
- experimental_setup: maximum binding force
- Method: 1.1 Reagent Materials • Ligand: LANCL2 • Running buffer: 20 mM MES, 150 mM NaCl, 0.05% P20, pH 6.5, 1% DMSO Injection conditions for small molecule compounds: a flow rate of 30 μL/min, a binding time of 60 s, a dissociation time of 300 s. […] Kinetic determination of LANCL2-small molecule interactions was performed. The kinetic parameters of small molecules BT-11 and L-1 to 60 (analytes) binding to LANCL2 (ligand) were determined using BIACORE S200. […]
This listing pairs compounds with measured Rmax (RU).
The reply should contain only the number, in RU.

Given the compound O=C(NC1C2CN(C(=O)c3cccc(-c4nc5ccccc5[nH]4)n3)CC21)c1cccc(-c2nc3ccccc3[nH]2)n1 [Embodiment L-11] , what is its reported Rmax (RU)? 4.2

Given the compound Cc1ccc(C(=O)N2CCN(C(=O)c3cccc(-c4nc5ccccc5[nH]4)n3)CC2)cc1NC1=CC(=O)c2ccccc2C1=O [Embodiment L-116] , what is its reported Rmax (RU)? 32.5

Given the compound O=C(c1cccc(Nc2ccccc2)n1)N1CC2CN(C(=O)c3cccc(Nc4ccccc4)n3)CC2C1 [Embodiment L-100] , what is its reported Rmax (RU)? 7.8
